molecular target: Histamine H4 receptor (Homo sapiens, UniProt Q9H3N8); assay: Antagonist activity at human H4R expressed in CHO cells assessed as inhibition of forskolin-induced cAMP accumulation after 30 mins by TR-FRET immunoassay
Sequence (Q9H3N8 whole entry): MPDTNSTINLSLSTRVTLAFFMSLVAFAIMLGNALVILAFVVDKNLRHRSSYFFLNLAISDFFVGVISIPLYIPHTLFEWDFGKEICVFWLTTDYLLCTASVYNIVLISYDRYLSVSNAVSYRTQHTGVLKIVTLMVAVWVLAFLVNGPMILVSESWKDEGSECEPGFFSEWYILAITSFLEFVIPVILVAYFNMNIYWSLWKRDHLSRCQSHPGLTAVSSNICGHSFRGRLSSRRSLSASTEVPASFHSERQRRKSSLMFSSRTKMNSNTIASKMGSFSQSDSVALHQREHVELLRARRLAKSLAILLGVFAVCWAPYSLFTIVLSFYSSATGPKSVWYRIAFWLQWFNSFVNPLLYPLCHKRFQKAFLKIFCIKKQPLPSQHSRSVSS
Attribute measured: IC50 (nM)
One number for each entry, in nM.

Structure smiles	Subject of test	Value unit	Result value
CN1CCN(c2nc(N)nc(/C=C/c3cccc(Cl)c3)n2)CC1	Histamine H4 receptor (Homo sapiens, UniProt Q9H3N8)	nM	439

What does the record list as IC50 for Cc1cccc(/C=C/c2nc(N)nc(N3CCN(C)CC3)n2)c1 ?
606

* * *

target: UniProt:Q9H3N8
Please respond with reported Ki for every item in the list.
Answers are plain numbers, in µM.

Quick request: Ki for each listed item, please.
1. CN1CCN(c2nc(N)nc(/C=C/c3cccc4ccccc34)n2)CC1
2. CN1CCN(c2nc(N)nc(/C=C/c3cccc(Cl)c3)n2)CC1
3. CN1CCN(c2nc(N)nc(/C=C/c3cccc(Br)c3)n2)CC1
4. CN1CCN(c2nc(N)nc(/C=C/c3cccc([N+](=O)[O-])c3)n2)CC1

30
0.253
1.14
2.57

* * *

assay: Ratio of IC50 for doxorubicin to antiproliferative activity for test compound against human IMR32 cells; type: cell-based, IMR-32; details: read-out: Ratio IC50
Attribute measured: selectivity ratio

Give its selectivity ratio value. Item: CN1CCN(c2nc(N)nc(/C=C/c3cccc(Cl)c3)n2)CC1
> 1000

* * *

Give measured pKi for each item. Keep answers brief.
target: Histamine H4 receptor (Homo sapiens, UniProt Q9H3N8); test: Displacement of [3H]histamine from human H4 receptor expressed in Sf9 cell membranes co-expressing Galphai2 and Gbeta1gamma2 after 60 mins by liquid scintillation counting assay; type: cell-based
Answers are plain numbers, as −log10 of the molar value.

Solved cases (3 shown):
Structure smiles	Attribute measured	Result value
Cc1ccccc1/C=C/c1nc(N)nc(N2CCN(C)CC2)n1	pKi	5.65
CN1CCN(c2nc(N)nc(/C=C/c3ccc(Cl)c(Cl)c3)n2)CC1	pKi	5.75
CN1CCN(c2nc(N)nc(/C=C/c3cccc(F)c3)n2)CC1	pKi	5.45

# batch size: 3; output pKi per entry
1. CN1CCN(c2nc(N)nc(/C=C/c3cccc(C#N)c3)n2)CC1
2. Cc1ccc(/C=C/c2nc(N)nc(N3CCN(C)CC3)n2)cc1
3. CN1CCN(c2nc(N)nc(/C=C/c3ccc4ccccc4c3)n2)CC1

1. 5.58
2. 4.43
3. 5.42

* * *

target: CYP3A4 (Homo sapiens); experiment: Inhibition of human recombinant CYP3A4 assessed as conversion of luciferin-PPXE to D-luciferin at 25 uM by luminescence Glo assay relative to control; assay type: ADME; conditions: recombinant CYP3A4, probe luciferin-PPXE
Sequence (P08684 whole entry): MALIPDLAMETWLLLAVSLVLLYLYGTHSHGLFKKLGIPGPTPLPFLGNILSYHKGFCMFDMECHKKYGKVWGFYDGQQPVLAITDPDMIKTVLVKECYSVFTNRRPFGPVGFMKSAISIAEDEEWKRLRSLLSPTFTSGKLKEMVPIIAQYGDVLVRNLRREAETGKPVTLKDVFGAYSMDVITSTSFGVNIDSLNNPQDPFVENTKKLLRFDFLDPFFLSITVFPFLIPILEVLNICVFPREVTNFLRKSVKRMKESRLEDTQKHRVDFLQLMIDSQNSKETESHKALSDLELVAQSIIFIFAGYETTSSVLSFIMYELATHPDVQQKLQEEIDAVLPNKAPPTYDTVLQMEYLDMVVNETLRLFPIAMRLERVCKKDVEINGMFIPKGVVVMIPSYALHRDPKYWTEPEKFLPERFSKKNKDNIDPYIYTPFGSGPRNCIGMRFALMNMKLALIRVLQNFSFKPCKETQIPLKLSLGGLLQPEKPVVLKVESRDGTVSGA
Attribute measured: inhibition at 25 µM
Just so you know, I need the unit written after the number.

Name the reported inhibition at 25 µM value associated with the compound CN1CCN(c2nc(N)nc(/C=C/c3cccc(Cl)c3)n2)CC1
58%
